molecular target: IDO1 (Homo sapiens, UniProt P14902); assay: IDO1 Human Whole Blood Assay; type: cell-based; parameters: Human whole blood was drawn in sodium heparin coated tubes from healthy internal donors; from tissue; host or cells: Human whole blood from healthy donors, stimulated with LPS and IFNγ; conditions: LPS and IFNγ 100 ng/mL, 18 h, kynurenine by LC/MS/MS
Sequence (P14902 whole entry): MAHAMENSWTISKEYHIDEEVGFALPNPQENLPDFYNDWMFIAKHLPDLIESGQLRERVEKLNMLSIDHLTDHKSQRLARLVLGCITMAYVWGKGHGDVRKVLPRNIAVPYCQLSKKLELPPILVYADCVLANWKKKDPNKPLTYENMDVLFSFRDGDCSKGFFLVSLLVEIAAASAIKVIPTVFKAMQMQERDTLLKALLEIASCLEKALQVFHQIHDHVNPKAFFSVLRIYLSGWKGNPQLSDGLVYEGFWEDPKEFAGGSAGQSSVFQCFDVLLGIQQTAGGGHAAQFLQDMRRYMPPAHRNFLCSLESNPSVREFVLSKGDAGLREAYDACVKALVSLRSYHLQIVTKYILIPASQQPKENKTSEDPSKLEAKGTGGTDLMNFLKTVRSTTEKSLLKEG
pIC50: −log10 of the molar value.
Label Condition not met if pIC50 falls below 7; label Condition met in every other case.

Record excerpt, results attached:
Cc1cc(OC(F)F)ncc1-c1ccc(C2(c3nc4cc(C(F)(F)F)cnc4[nH]3)COC2)cc1	Condition not met
N#Cc1cccc(C(=O)Nc2ccc(C3(c4nc5cc(Br)cnc5[nH]4)CCC3)cc2F)c1	Condition met
N#Cc1cccc(C(=O)Nc2ccc(C3(c4nc5cc(C(F)(F)F)cnc5[nH]4)CCC3)cc2F)c1	Condition met
OCc1cc(C(F)(F)F)ncc1-c1ccc(C2(c3nc4ncc(Cl)cc4[nH]3)COC2)cc1	Condition not met
Cc1cc(OC(F)F)nc(C)c1-c1ccc(C2(c3nc4cc(C(F)(F)F)cnc4[nH]3)COC2)cc1	Condition not met

Inquiry: Given OCc1cc(C(F)(F)F)ncc1-c1ccc(C2(c3nc4cc(C(F)(F)F)cnc4[nH]3)COC2)cc1 , state whether its pIC50 is at least 7.
Reply text: Condition not met

Inquiry: Check N#Cc1cccc(C(=O)Nc2ccc(C3(c4nc5ccc(C(F)(F)F)cc5[nH]4)CCC3)cc2)c1 too.
Reply text: Condition met

Inquiry: Check COc1cc(C)c(-c2ccc(C3(c4nc5cc(C(F)(F)F)cnc5[nH]4)COC3)cc2)c(C)n1 too.
Reply text: Condition not met

Inquiry: O=C(Nc1ccc(C2(c3nc4ncccc4[nH]3)CCC2)cc1)c1cccc(Cl)c1 , same question.
Reply text: Condition not met

Inquiry: Moving on to OCc1cc(C(F)(F)F)ncc1-c1ccc(C2(c3nc4ncc(Cl)cc4[nH]3)CCC2)cc1
Reply text: Condition not met

Inquiry: Entry OCc1cc(C(F)(F)F)ncc1-c1ccc(C2(c3nc4ccc(Cl)cc4[nH]3)COC2)cc1 please
Reply text: Condition not met

* * *

target: UniProtKB P14902; test: IDO1 Cellular Assay in HeLa Cells Stimulated with IFNγ; format: cell-based; details: IFNγ 100 ng/mL, 300 uM L-tryptophan, about 48 hours, read-out: IDO HeLa Cell Assay, IC50
experimental-readout: pIC50
Answers are plain numbers, as −log10 of the molar value.

Reference set, count: 5
N#Cc1cccc(C(=O)Nc2ccc(C3(c4nc5ccc(Cl)cc5[nH]4)CC(O)C3)cc2)c1 (stereo not drawn) [Example 23]	7.36
O=C(Nc1ccc(F)cc1F)c1ccc(C2(c3nc4ncc(C(F)(F)F)cc4[nH]3)CCC2)cc1 [Example 32]	8.58
OCc1cc(C(F)(F)F)ncc1-c1ccc(C2(c3nc4ccc(Cl)cc4[nH]3)CCC2)cc1 [Example 52]	8.96
N#Cc1cccc(C(=O)Nc2ccc(C3(c4nc5ccc(C#N)cc5[nH]4)CC(F)C3)cc2)c1 (stereo not drawn) [Example 26]	8.73
O=C(Nc1cccc(Cl)c1)c1ccc(C2(c3nc4ncc(C(F)(F)F)cc4[nH]3)CCC2)cc1 [Example 27]	8.83

I'm hoping you can list pIC50 for every compound here, please.
1. OCc1cc(C(F)(F)F)ncc1-c1ccc(C2(c3nc4cc(C(F)(F)F)cnc4[nH]3)COC2)cc1 [Example 45]
2. Cc1cc(C2CC2)ncc1-c1ccc(C2(c3nc4ncc(C#N)cc4[nH]3)CCC2)cc1 [Example 39]
3. N#Cc1cccc(C(=O)Nc2ccc(C3(c4nc5cc(C#N)cnc5[nH]4)CCC3)cc2Cl)c1 [Example 13]
4. O=C(Nc1ccc(C2(c3nc4ncc(C(F)(F)F)cc4[nH]3)CCC2)cc1)c1cccc(Cl)c1 [Example 1]
5. N#Cc1cccc(C(=O)Nc2ccc(C3(c4nc5ccc(Cl)cc5[nH]4)CC(F)C3)cc2)c1 (stereo not drawn) [Example 25]
6. Cc1cc(OC(F)F)ncc1-c1ccc(C2(c3nc4cc(C(F)(F)F)cnc4[nH]3)COC2)cc1 [Example 44]
7. N#Cc1cccc(C(=O)Nc2ccc(C3(c4nc5cc(C#N)cnc5[nH]4)CCC3)cc2F)c1 [Example 17]

Reply text:
[7.81, 8.44, 8.14, 8.82, 8.97, 8.65, 8.77]

Record pIC50 for all entries; do not skip any.
1. N#Cc1cnc2nc(C3(c4ccc(NC(=O)c5cccc(Cl)c5)cc4)CCC3)[nH]c2c1 [Example 2]
2. N#Cc1cccc(C(=O)Nc2ccc(C3(c4nc5ncc(Cl)cc5[nH]4)CCC3)cc2)c1 [Example 10]
3. OCc1cc(C(F)(F)F)ncc1-c1ccc(C2(c3nc4ncc(Cl)cc4[nH]3)CCC2)cc1 [Example 46]
4. O=C(Nc1ccc(C2(c3nc4ccccc4[nH]3)CCC2)cc1)c1cccc(Cl)c1 [Example 4]
5. N#Cc1ccc(F)c(NC(=O)c2ccc(C3(c4nc5ncc(C(F)(F)F)cc5[nH]4)CCC3)cc2)c1 [Example 36]
6. O=C(Nc1cc(Cl)ccc1F)c1ccc(C2(c3nc4ncc(C(F)(F)F)cc4[nH]3)CCC2)cc1 [Example 37]
7. N#Cc1cnc2[nH]c(C3(c4ccc(NC(=O)OC5CC5)cc4)CCC3)nc2c1 [Example 22]

Reply text:
1: 8.70; 2: 8.49; 3: 8.64; 4: 8.52; 5: 8.11; 6: 8.69; 7: 7.38

For each of the compounds below, state pIC50.
1. Cn1ccc(Nc2ccc(C3(c4nc5cc(C#N)cnc5[nH]4)CCC3)cc2CO)n1 [Example 21]
2. N#Cc1cccc(C(=O)Nc2ccc(C3(c4nc5cc(Br)cnc5[nH]4)CCC3)cc2F)c1 [Example 16]
3. OCc1cc(C(F)(F)F)ncc1-c1ccc(C2(c3nc4ccc(Cl)cc4[nH]3)COC2)cc1 [Example 51]
4. CC(C)(O)c1cc(C(F)(F)F)ncc1-c1ccc(C2(c3nc4cc(Cl)ccc4[nH]3)CCC2)cc1 [Example 49]
5. Cc1cc(OC(F)F)nc(C)c1-c1ccc(C2(c3nc4cc(Cl)ccc4[nH]3)CCC2)cc1 [Example 48]
6. N#Cc1cccc(C(=O)Nc2ccc(C3(c4nc5ncc(C#N)cc5[nH]4)CCC3)cc2)c1 [Example 3]
7. N#Cc1cccc(C(=O)Nc2ccc(C3(c4nc5cc(C(F)(F)F)cnc5[nH]4)CCC3)cc2)c1 [Example 6]
8. OCc1cc(C(F)(F)F)ncc1-c1ccc(C2(c3nc4ncc(Cl)cc4[nH]3)COC2)cc1 [Example 50]

Reply text:
[6.09, 8.93, 8.76, 8.77, 8.61, 8.40, 8.50, 8.52]

For every item below, please supply its pIC50.
1. COc1cc(C)c(-c2ccc(C3(c4nc5cc(C(F)(F)F)cnc5[nH]4)COC3)cc2)c(C)n1 [Example 43]
2. N#Cc1cccc(C(=O)Nc2ccc(C3(c4nc5ccc(C(F)(F)F)cc5[nH]4)CCC3)cc2)c1 [Example 7]
3. OCc1cc(OC(F)F)ncc1-c1ccc(C2(c3nc4cc(Cl)ccc4[nH]3)CCC2)cc1 [Example 47]
4. O=C(Nc1cncc(Cl)c1)c1ccc(C2(c3nc4ncc(C(F)(F)F)cc4[nH]3)CCC2)cc1 [Example 33]
5. O=C(NC1CCCCC1)c1ccc(C2(c3nc4ncc(C(F)(F)F)cc4[nH]3)CCC2)cc1 [Example 34]
6. Cc1cc(OC(F)F)nc(C)c1-c1ccc(C2(c3nc4cc(C(F)(F)F)cnc4[nH]3)COC2)cc1 [Example 42]

Reply text:
[8.55, 8.96, 8.40, 8.00, 6.82, 8.67]

Each recorded value in this set is attributed to patent US11208407B2.
